The reported numbers originate from patent US10772928B2.

Target: T1, nSR100 (Mus musculus, UniProt Q8BKA3)
T1 construct: host or cells: mouse N2A cells
T1 sequence (Q8BKA3 1-608): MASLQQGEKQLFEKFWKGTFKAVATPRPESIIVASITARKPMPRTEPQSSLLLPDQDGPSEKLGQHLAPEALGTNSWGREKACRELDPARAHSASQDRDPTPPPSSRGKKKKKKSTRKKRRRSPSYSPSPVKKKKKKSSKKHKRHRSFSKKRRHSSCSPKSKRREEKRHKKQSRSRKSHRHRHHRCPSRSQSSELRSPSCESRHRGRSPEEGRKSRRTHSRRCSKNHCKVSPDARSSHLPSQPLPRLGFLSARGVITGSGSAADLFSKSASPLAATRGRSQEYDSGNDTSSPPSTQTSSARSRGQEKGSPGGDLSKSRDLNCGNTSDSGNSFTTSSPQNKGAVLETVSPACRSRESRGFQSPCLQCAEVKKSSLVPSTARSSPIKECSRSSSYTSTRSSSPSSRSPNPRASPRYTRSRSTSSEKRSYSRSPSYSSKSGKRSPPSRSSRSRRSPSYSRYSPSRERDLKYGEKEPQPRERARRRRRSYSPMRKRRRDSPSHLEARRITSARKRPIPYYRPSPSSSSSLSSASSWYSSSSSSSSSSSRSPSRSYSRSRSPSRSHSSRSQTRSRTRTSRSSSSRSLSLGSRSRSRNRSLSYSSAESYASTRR
Assay: AP-MS nSR100 interaction partners from mouse N2A cells (Table 5)
Type: binding
Settings: bait Srrm4
PROPERTY_MEASURED: MaxP (maximal SAINT score)
Give bare numbers.

>  <MOLECULE>
P00761 (protein, UniProt P00761 1-231, looked up, full-length) FPTDDDDKIVGGYTCAANSIPYQVSLNSGSHFCGGSLINSQWVVSAAHCYKSRIQVRLGEHNIDVLEGNEQFINAAKIITHPNFNGNTLDNDIMLIKLSSPATLNSRVATVSLPRSCAAAGTECLISGWGNTKSSGSSYPSLLQCLKAPVLSDSSCKSSYPGQITGNMICVGFLEGGKDSCQGDSGGPVVCNGQLQGIVSWGYGCAQKNKPGVYTKVCNYVNWIQQTIAAN

>  <PROPERTY_MEASURED>
MaxP (maximal SAINT score)

>  <ASSAY_RESULT>
1

$$$$
>  <MOLECULE>
Fam76b (protein, UniProt Q80XP8 2-339, looked up) Protein FAM76B: AASALYACTKCTQRYPFEELSQGQQLCKECRIAHPIVKCTYCRSEFQQESKTNTICKKCAQNVKQFGTPKPCQYCNIIAAFIGTKCQRCTNSEKKYGAPQTCEQCKQQCAFDRKEEGRRKVDGKLLCWLCTLSYKRVLQKTKEQRKSLGSSHSNSSSSSLTEKDQHHSKHHHHHHHHHHRHSSGHHKVSSLSPEQEQGLWKQSHKSSAAIQNETPKKKPKLESKPSNGDSSSINQSADSGGTDNFVLISQLKEEVMSLKRLLQQRDQTILEKDKKLTELKADFQYQESNLRTKMNSMEKAHKETVEQLQAKNRELLKQVAALSKGKKFDKSGSVLTSP

>  <PROPERTY_MEASURED>
MaxP (maximal SAINT score)

>  <ASSAY_RESULT>
1

$$$$
>  <MOLECULE>
U2af1 (protein, UniProt Q9D883 2-239, looked up) Splicing factor U2AF 35 kDa …: AEYLASIFGTEKDKVNCSFYFKIGACRHGDRCSRLHNKPTFSQTIALLNIYRNPQNSSQSADGLRCAVSDVEMQEHYDEFFEEVFTEMEEKYGEVEEMNVCDNLGDHLVGNVYVKFRREEDAEKAVIDLNNRWFNGQPIHAELSPVTDFREACCRQYEMGECTRGGFCNFMHLKPISRELRRELYGRRRKKHRSRSRSRERRSRSRDRGRGGGGGGGGGGGRERDRRRSRDRERSGRF

>  <PROPERTY_MEASURED>
MaxP (maximal SAINT score)

>  <ASSAY_RESULT>
1

$$$$
>  <MOLECULE>
Tpi1 (protein, UniProt P17751 2-249, looked up) Triosephosphate isomerase: APTRKFFVGGNWKMNGRKKCLGELICTLNAANVPAGTEVVCAPPTAYIDFARQKLDPKIAVAAQNCYKVTNGAFTGEISPGMIKDLGATWVVLGHSERRHVFGESDELIGQKVSHALAEGLGVIACIGEKLDEREAGITEKVVFEQTKVIADNVKDWSKVVLAYEPVWAIGTGKTATPQQAQEVHEKLRGWLKSNVNDGVAQSTRIIYGGSVTGATCKELASQPDVDGFLVGGASLKPEFVDIINAKQ

>  <PROPERTY_MEASURED>
MaxP (maximal SAINT score)

>  <ASSAY_RESULT>
0.87

$$$$

Read the next record carefully.
[ask] Requested read-out: MaxP (maximal SAINT score). Entry: Bcas2 (protein, UniProt Q9D287 2-225, looked up) Pre-mRNA-splicing factor SPF27: AGTGLVAGEVVVDALPYFDQGYEAPGVREAAAALVEEETRRYRPTKNYLSYLTAPDYSAFETDIMRNEFERLAARQPIELLSMKRYELPAPSSGQKNDITAWQECVNNSMAQLEHQAVRIENLELMSQHGCNAWKVYNENLVHMIEHAQKELQKLRKHIQDLNWQRKNMQLTAGSKLREMESNWVSLVSKNYEIERTIVQLENEIYQIKQQHGEANKENIRQDF
[reply] 0.99
